tgt: HarmOR55 (Helicoverpa armigera, UniProt A0A7T3N2G6)
Sequence (A0A7T3N2G6 entry or part of it): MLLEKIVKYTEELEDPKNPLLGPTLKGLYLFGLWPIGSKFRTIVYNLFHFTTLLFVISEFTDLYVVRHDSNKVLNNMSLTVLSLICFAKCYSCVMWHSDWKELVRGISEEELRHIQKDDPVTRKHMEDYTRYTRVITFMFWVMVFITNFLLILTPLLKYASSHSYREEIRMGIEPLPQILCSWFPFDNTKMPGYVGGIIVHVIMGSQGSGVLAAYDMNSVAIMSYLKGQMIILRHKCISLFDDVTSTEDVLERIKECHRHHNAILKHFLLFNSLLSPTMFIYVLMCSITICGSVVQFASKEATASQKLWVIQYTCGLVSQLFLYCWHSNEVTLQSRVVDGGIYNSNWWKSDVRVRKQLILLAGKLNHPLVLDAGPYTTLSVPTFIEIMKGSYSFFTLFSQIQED
testSummary: Xenopus oocyte two-electrode voltage clamp, HarmOR55 + Orco
conditionParameters: dose response in oocytes, unit M
pEC50: −log10 of the molar value.
quantityName: pEC50

• C=CC(C)(O)CC/C=C(\C)CCC=C(C)C (stereo not shown) [(E)-Nerolidol] = 4.06

----------
# pEC50 annotations
tgt: HarmOR43 (Helicoverpa armigera)
Sequence (A0A7T3KAF8 1-415): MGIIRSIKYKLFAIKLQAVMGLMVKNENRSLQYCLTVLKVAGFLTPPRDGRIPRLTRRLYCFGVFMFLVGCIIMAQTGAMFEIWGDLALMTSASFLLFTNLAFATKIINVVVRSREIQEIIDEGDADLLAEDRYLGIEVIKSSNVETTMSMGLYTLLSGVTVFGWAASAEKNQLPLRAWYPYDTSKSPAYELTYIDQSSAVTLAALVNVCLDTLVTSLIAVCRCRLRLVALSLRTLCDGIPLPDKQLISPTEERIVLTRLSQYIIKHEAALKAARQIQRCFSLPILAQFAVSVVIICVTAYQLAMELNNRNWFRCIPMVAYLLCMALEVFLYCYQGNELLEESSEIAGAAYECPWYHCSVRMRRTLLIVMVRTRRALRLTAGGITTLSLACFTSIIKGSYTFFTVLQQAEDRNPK
testSummary: Xenopus oocyte two-electrode voltage clamp, HarmOR43 + Orco
conditionParameters: dose response in oocytes, unit M
pEC50: −log10 of the molar value.
quantityName: pEC50

- COC(=O)c1ccccc1 [Methyl benzoate]: 4.81
- COC(=O)c1ccccc1O [Methyl salicylate]: 4.80
- COC(=O)c1ccc(O)cc1 [Methyl 4-hydroxybenzoate]: 4.71

----------
tgt: HarmOR40 (Helicoverpa armigera)
Sequence (A0A7T3KBF4 1-401): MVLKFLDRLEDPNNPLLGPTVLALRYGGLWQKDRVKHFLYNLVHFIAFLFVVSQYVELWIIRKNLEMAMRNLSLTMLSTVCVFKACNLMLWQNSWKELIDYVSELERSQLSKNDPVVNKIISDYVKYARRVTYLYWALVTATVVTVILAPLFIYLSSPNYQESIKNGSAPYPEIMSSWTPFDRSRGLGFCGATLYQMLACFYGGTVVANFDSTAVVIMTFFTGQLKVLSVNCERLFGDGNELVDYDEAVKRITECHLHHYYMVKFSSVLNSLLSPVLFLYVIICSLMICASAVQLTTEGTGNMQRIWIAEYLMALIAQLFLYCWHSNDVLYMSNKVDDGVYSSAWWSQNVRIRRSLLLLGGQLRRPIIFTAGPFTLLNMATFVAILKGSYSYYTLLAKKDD
testSummary: Xenopus oocyte two-electrode voltage clamp, HarmOR40 + Orco
Type: cell-based
pEC50: −log10 of the molar value.
quantityName: pEC50

* CC(C)=CCC/C(C)=C/CO [Geraniol] | 4.56

----------
tgt: HarmOR35 (Helicoverpa armigera)
testSummary: Xenopus oocyte two-electrode voltage clamp, HarmOR35 + Orco
Format: cell-based
pEC50: −log10 of the molar value.
quantityName: pEC50

- C=CCc1ccc(O)c(OC)c1 [Eugenol]: 4.37

----------
tgt: HarmOR26 (Helicoverpa armigera)
Sequence (A0A075T633 1-408): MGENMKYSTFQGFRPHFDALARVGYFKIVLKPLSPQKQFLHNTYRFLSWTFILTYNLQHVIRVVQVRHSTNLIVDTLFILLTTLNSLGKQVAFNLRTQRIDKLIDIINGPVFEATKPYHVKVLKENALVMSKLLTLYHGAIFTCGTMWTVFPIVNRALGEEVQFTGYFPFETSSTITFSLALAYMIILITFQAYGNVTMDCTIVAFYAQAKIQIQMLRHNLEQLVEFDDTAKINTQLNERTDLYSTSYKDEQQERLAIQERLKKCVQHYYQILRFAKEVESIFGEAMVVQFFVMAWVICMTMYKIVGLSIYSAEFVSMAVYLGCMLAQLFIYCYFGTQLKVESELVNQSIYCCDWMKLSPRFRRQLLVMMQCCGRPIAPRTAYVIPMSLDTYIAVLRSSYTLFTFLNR
testSummary: Xenopus oocyte two-electrode voltage clamp, HarmOR26 + Orco
conditionParameters: dose response in oocytes, unit M printed in b12 only
pEC50: −log10 of the molar value.
quantityName: pEC50

• C=CC(C)(O)CC/C=C(\C)CCC=C(C)C (stereo not shown) [(E)-Nerolidol] = 7.54

----------
tgt: HarmOR19 (Helicoverpa armigera, UniProt A0A7T3N0J7)
Sequence (A0A7T3N0J7 1-402): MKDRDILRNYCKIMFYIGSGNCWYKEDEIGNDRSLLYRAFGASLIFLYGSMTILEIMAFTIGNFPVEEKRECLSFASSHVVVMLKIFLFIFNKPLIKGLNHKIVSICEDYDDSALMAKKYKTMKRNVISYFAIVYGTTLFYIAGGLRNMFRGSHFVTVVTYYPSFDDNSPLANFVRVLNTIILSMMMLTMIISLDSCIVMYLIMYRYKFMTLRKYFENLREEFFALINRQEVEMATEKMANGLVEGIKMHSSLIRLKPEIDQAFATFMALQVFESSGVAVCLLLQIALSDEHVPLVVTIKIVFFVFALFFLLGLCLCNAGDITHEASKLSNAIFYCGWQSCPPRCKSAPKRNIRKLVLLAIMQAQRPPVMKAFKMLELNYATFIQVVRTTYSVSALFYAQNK
testSummary: Xenopus oocyte two-electrode voltage clamp, HarmOR19 + Orco
conditionParameters: dose response in oocytes, unit M
pEC50: −log10 of the molar value.
quantityName: pEC50

* CCc1ccc(C(C)=O)cc1 | 4.78
* CCCCOC(=O)c1ccccc1O [Butyl salicylate] | 3.40
* CCOC(=O)c1ccccc1 [Ethyl benzoate] | 4.22

----------
tgt: HarmOR59 (Helicoverpa armigera, UniProt A0A7T3KAU6)
Sequence (A0A7T3KAU6 entry or part of it): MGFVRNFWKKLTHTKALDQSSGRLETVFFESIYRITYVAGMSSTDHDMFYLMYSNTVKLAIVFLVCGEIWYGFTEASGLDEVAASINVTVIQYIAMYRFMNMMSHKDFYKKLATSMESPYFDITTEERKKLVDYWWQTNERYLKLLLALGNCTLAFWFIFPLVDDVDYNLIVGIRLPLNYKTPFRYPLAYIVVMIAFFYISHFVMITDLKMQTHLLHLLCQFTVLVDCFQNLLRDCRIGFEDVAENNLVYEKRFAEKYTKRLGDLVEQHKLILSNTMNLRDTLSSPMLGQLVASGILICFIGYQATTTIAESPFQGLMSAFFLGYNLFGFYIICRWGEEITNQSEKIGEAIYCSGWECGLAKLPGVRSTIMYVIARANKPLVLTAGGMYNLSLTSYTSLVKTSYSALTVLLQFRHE
testSummary: Xenopus oocyte two-electrode voltage clamp, HarmOR59 + Orco
Assay type: cell-based
conditionParameters: HarmOR59; dose response in oocytes; unit M; read-out: EC50
The reader will find reported EC50 values listed item by item below.
quantityName: EC50 (µM)

* OCCc1ccccc1 | 2.91
* CCc1ccc(C=O)cc1 | 1190

----------
tgt: HarmOR10 (Helicoverpa armigera)
Sequence (A0A0G2RLT6 1-390): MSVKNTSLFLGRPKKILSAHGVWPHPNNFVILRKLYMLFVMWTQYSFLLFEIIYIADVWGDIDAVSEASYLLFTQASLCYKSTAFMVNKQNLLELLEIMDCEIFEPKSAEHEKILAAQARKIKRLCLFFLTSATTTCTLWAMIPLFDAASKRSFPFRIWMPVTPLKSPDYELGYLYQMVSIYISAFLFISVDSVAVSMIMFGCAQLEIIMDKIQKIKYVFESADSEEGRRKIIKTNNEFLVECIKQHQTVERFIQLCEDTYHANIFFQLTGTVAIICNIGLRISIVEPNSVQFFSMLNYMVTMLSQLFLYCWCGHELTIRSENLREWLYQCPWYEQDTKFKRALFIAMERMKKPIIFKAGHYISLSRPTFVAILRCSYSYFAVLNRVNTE
testSummary: Xenopus oocyte two-electrode voltage clamp, HarmOR10 + Orco
quantityName: EC50 (µM)

• O=Cc1ccccc1 = 124

----------
tgt: UniProtKB A0A7T3N1A8
testSummary: Xenopus oocyte two-electrode voltage clamp, HarmOR35 + Orco
Format: cell-based
conditionParameters: HarmOR35; dose response in oocytes; unit M; read-out: EC50
quantityName: EC50

• CC1(C)[C@H]2CC=C(C=O)[C@@H]1C2 [(1R)-(-)-Myrtenal] = 255 µM

----------
In this section, each of the compounds is paired with its reported EC50.
tgt: HarmOR29 (Helicoverpa armigera)
Sequence (A0A7T3KAG0 1-395): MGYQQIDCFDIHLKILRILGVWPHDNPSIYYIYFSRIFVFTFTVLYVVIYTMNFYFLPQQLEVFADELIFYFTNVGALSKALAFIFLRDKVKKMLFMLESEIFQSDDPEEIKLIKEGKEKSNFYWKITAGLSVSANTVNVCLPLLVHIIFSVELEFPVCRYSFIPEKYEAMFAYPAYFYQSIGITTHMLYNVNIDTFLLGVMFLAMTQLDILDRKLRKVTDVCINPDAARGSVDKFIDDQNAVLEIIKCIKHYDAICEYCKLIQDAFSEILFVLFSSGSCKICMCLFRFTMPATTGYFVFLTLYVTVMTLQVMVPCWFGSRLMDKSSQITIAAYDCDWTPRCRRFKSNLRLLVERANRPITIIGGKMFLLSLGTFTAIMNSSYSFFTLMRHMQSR
testSummary: Xenopus oocyte two-electrode voltage clamp, HarmOR29 + Orco
conditionParameters: dose response in oocytes, unit M
quantityName: EC50 (µM)

• COC(=O)c1ccc(O)cc1 [Methyl 4-hydroxybenzoate] = 178
• C=CCc1ccc(O)c(OC)c1 = 18.9

----------
tgt: HarmOR8 (Helicoverpa armigera, UniProt A0A7T3N2E2)
testSummary: Xenopus oocyte two-electrode voltage clamp, HarmOR8 + Orco
conditionParameters: dose response in oocytes, unit M
Procedure: In order to expand our analysis on the response properties of HarmORs, we conducted dose–response analyses for the 28 functional HarmORs. […] Six HarmORs (OR3, 22, 48, 50, 56, and 66) could not be activated by any ligand at 10^−5 M. For the other 22 HarmORs, dose–response curves were generated and EC50 values of their major ligands were calculated (fig. 2A and supplementary table S2, Supplementary Material online). […]
quantityName: EC50

* C=CCc1ccc(OC)c(OC)c1 | 106 µM

----------
tgt: HarmOR63 (Helicoverpa armigera, UniProt A0A7T3N0P9)
Sequence (A0A7T3N0P9 1-407): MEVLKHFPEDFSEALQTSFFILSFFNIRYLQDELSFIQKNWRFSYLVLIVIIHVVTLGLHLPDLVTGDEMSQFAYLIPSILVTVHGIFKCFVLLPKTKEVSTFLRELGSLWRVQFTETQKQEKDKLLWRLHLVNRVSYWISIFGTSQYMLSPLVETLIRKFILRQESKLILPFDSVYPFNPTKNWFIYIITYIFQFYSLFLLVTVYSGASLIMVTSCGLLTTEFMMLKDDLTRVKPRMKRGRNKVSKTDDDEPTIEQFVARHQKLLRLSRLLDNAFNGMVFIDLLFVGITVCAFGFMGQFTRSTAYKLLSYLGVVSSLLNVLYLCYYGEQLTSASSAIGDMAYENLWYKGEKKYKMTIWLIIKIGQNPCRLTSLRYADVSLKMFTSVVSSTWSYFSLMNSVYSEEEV
testSummary: Xenopus oocyte two-electrode voltage clamp, HarmOR63 + Orco
conditionParameters: dose response in oocytes, unit M
# EC50 listing for each entry below
quantityName: EC50

• C=C1CC/C=C(\C)CC[C@@H]2[C@@H]1CC2(C)C [(-)-trans-Caryophyllene] = 88.2 µM
• C=C1CC[C@H]2O[C@]2(C)CC[C@@H]2[C@@H]1CC2(C)C [(-)-Caryophyllene oxide] = 52.1 µM

----------
tgt: HarmOR27 (Helicoverpa armigera)
Sequence (A0A7T3KAG1 1-426): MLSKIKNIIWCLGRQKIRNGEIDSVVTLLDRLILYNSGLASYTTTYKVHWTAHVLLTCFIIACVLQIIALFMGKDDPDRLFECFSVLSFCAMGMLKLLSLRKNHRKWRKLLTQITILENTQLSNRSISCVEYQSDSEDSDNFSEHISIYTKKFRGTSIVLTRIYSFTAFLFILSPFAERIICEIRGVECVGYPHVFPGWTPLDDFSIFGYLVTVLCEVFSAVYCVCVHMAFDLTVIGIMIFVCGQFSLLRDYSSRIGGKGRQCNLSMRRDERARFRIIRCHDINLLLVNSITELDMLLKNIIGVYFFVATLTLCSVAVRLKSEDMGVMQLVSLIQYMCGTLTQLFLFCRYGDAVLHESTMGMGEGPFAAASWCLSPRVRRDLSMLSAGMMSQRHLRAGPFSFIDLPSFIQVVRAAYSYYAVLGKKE
testSummary: Xenopus oocyte two-electrode voltage clamp, HarmOR27 + Orco
Assay type: cell-based
pEC50: −log10 of the molar value.
# pEC50 listing for each entry below
quantityName: pEC50

* COC(=O)c1ccccc1O [Methyl salicylate] | 4.81
* COC(=O)c1ccccc1 [Methyl benzoate] | 4.88
* CCOC(=O)c1ccccc1 [Ethyl benzoate] | 4.16

----------
tgt: HarmOR23 (Helicoverpa armigera, UniProt A0A7T3KAE3)
testSummary: Xenopus oocyte two-electrode voltage clamp, HarmOR23 + Orco
Type: cell-based
conditionParameters: dose response in oocytes, unit M printed in text only
pEC50: −log10 of the molar value.
quantityName: pEC50

• CC(=O)OC/C=C(\C)CCC=C(C)C [Geranyl acetate] = 5.29

----------
Documented EC50 across a set of compounds
tgt: HarmOR67 (Helicoverpa armigera, UniProt A0A7T3KAH1)
Sequence (A0A7T3KAH1 entry or part of it): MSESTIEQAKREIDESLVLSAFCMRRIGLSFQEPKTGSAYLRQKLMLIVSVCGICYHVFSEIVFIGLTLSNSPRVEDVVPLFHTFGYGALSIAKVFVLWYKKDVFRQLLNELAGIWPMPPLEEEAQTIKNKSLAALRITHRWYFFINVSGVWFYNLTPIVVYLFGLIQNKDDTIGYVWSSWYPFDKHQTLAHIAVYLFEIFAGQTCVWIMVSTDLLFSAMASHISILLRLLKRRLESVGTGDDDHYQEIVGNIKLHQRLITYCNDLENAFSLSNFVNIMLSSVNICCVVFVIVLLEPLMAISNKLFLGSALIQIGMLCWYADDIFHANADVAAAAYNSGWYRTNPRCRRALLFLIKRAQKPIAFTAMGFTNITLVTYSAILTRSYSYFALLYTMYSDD
testSummary: Xenopus oocyte two-electrode voltage clamp, HarmOR67 + Orco
conditionParameters: dose response in oocytes, unit M
quantityName: EC50 (µM)

- CCCCCCCO: 218
- CCCCCCC=O: 302
- CCCCCCCCO: 33.1

----------
tgt: HarmOR36 (Helicoverpa armigera, UniProt A0A7T3N0K7)
Sequence (A0A7T3N0K7 entry or part of it): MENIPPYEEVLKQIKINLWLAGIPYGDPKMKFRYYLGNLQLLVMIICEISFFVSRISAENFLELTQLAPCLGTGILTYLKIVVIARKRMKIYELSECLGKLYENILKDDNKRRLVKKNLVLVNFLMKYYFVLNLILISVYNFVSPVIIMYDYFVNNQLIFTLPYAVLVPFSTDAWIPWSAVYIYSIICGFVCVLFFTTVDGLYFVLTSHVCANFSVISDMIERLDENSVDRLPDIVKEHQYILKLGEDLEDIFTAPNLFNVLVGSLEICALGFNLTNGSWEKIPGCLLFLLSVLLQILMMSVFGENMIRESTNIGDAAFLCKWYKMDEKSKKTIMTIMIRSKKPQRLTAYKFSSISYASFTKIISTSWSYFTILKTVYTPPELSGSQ
testSummary: Xenopus oocyte two-electrode voltage clamp, HarmOR36 + Orco
Format: cell-based
conditionParameters: EC50, HarmOR36; dose response in oocytes; unit M
quantityName: EC50 (µM)

• C=CC(C)(O)CCC=C(C)C (stereo not shown) = 1.16

----------
tgt: HarmOR25 (Helicoverpa armigera, UniProt A0A7T3KAG7)
Sequence (A0A7T3KAG7 1-398): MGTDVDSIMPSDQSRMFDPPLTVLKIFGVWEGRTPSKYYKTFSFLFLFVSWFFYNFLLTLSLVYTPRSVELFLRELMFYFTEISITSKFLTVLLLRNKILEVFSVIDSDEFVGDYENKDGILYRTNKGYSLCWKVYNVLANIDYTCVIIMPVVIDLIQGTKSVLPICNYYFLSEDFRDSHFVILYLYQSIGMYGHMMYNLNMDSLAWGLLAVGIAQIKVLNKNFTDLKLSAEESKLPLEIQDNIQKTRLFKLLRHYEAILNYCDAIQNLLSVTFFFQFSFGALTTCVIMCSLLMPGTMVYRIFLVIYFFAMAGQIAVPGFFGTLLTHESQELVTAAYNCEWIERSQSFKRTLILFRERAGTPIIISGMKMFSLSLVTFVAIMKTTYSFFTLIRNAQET
testSummary: Xenopus oocyte two-electrode voltage clamp, HarmOR25 + Orco
conditionParameters: HarmOR25; dose response in oocytes; unit M
Procedure: In order to expand our analysis on the response properties of HarmORs, we conducted dose–response analyses for the 28 functional HarmORs. […] Six HarmORs (OR3, 22, 48, 50, 56, and 66) could not be activated by any ligand at 10^−5 M. For the other 22 HarmORs, dose–response curves were generated and EC50 values of their major ligands were calculated (fig. 2A and supplementary table S2, Supplementary Material online). […]
quantityName: EC50 (µM)

• C=CCc1ccc(O)c(OC)c1 [Eugenol] = 81.6

----------
tgt: UniProt A0A172QGF5
testSummary: Xenopus oocyte two-electrode voltage clamp, HarmOR12 + Orco
Format: cell-based
Here the recorded EC50 is given for each entry.
quantityName: EC50 (µM)

• C=CC(C)(O)CCC=C(C)C (centres unmarked) = 21.2
• CC(C)=CCC/C(C)=C/CO = 27.6

----------
tgt: HarmOR12 (Helicoverpa armigera, UniProt A0A172QGF5)
Sequence (A0A172QGF5 entry or part of it): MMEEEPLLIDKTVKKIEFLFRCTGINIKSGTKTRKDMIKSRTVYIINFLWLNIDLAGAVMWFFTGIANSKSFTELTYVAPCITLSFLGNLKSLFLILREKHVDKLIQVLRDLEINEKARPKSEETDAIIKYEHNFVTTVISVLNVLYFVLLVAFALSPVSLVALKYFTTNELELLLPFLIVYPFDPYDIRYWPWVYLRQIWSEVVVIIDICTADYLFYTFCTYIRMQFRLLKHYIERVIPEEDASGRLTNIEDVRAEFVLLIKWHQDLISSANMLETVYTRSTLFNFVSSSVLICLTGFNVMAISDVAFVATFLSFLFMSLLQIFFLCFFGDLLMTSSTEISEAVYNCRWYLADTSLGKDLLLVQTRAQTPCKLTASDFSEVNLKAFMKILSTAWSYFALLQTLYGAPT
testSummary: Xenopus oocyte two-electrode voltage clamp, HarmOR12 + Orco
Format: cell-based
conditionParameters: HarmOR12; dose response in oocytes; unit M; read-out: EC50
pEC50: −log10 of the molar value.
Quick reference for pEC50 among some compounds
quantityName: pEC50

- CC(C)=CCCC(C)CCO (centres unmarked): 4.10
- C=C[C@](C)(O)CCC=C(C)C [(-)-Linalool]: 4.86
